Consider the following pKi values measured on human factor VIIa and TF (Homo sapiens).
pKi: −log10 of the molar value. Non-standard residues stand in square brackets, D forms with d. Residues, ends and D or L forms follow the SMILES beside them. *: point of attachment. Phe(4-amidino) = N=C(N)c1ccc(C[C@H](N)C(=O)O)cc1; Cha = N[C@@H](CC1CCCCC1)C(=O)O; Ala(CN) = N#CC[C@H](N)C(=O)O; Alloc = C=CCOC(=O)*; Bn = c1ccc(C*)cc1
metric-name: pKi

{"columns": ["molecule", "observed-result"],
 "data": [
  ["C=CCOC(=O)N[C@@H](Cc1ccc(C(=N)N)cc1)C(=O)N[C@@H](CCC(=O)O)C(=O)N[C@@H](CC#N)C(=O)N[C@@H](CC1CCCCC1)C(N)=O [Alloc--pAph--Glu--Ala(3-CN)--Cha--NH2] (Alloc-[Phe(4-amidino)]E[Ala(CN)][Cha]-NH2)", 6.92],
  ["C=CCOC(=O)N[C@@H](Cc1ccc(C(=N)N)cc1)C(=O)N[C@@H](CCC(=O)O)C(=O)N[C@@H](CC(N)=O)C(=O)NC1c2ccccc2-c2ccccc21 [Alloc--pAph--Glu--Asn-9-fluorenylamide]", 7.64],
  ["C=CCOC(=O)N[C@@H](Cc1ccc(C(=N)N)cc1)C(=O)N[C@@H](CCC(=O)O)C(=O)N[C@@H](CC(N)=O)C(=O)N(C)Cc1cccc2ccccc12", 5.77],
  ["C=CCOC(=O)N[C@@H](Cc1ccc(C(=N)N)cc1)C(=O)N[C@@H](CCC(=O)O)C(=O)N[C@H](C(=O)N[C@@H](CC1CCCCC1)C(N)=O)[C@@H](C)OCc1ccccc1 [Alloc--pAph--Glu--Thr(Bzl)--Cha--NH2] (Alloc-[Phe(4-amidino)]ET(Bn)[Cha]-NH2)", 7.72]
]}

---

pKi: −log10 of the molar value. Non-standard residues stand in square brackets, D forms with d. Residues, ends and D or L forms follow the SMILES beside them. *: point of attachment. Phe(4-amidino) = N=C(N)c1ccc(C[C@H](N)C(=O)O)cc1; Cha = N[C@@H](CC1CCCCC1)C(=O)O; Alloc = C=CCOC(=O)*
Consider the following pKi values measured on human factor VIIa and TF (Homo sapiens).

{"columns": ["compound", "pKi"],
 "data": [
  ["C=CCOC(=O)N[C@@H](Cc1ccc(C(=N)N)cc1)C(=O)N[C@@H](CCC(=O)O)C(=O)NCC(=O)N[C@@H](CC1CCCCC1)C(N)=O [Alloc--pAph--Glu--Gly--Cha--NH2, Alloc-pAph-Glu-Gly-Cha-NH2] (Alloc-[Phe(4-amidino)]EG[Cha]-NH2)", 6.92],
  ["C=CCOC(=O)N[C@@H](Cc1ccc(C(=N)N)cc1)C(=O)N[C@@H](CCC(=O)O)C(=O)N[C@@H](CC(N)=O)C(=O)NCc1ccc(OC)cc1", 7.08],
  ["C=CCOC(=O)N[C@@H](Cc1ccc(C(=N)N)cc1)C(=O)N[C@@H](CCC(=O)O)C(=O)N[C@@H](CCC(N)=O)C(N)=O [Alloc--pAph--Glu--Gln--NH2]", 5.82]
]}

---

# maps each entry to its Ki
Molecular target: human factor VIIa and TF (Homo sapiens, UniProt P08709)
Sequence (P08709 213-466 limits assumed): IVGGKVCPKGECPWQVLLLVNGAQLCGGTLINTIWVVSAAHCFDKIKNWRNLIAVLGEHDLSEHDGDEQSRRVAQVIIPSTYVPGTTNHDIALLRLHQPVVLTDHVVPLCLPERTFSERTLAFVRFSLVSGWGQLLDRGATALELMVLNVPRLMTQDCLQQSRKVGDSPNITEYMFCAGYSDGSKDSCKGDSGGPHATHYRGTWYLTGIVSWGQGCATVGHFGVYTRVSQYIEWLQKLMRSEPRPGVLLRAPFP
Sequence (P08709 61-212 limits assumed): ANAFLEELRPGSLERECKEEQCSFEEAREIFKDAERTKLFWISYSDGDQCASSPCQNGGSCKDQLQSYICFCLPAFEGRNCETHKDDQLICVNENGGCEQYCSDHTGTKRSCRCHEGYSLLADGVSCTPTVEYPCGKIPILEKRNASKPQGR
Sequence (P13726 33-295 partner): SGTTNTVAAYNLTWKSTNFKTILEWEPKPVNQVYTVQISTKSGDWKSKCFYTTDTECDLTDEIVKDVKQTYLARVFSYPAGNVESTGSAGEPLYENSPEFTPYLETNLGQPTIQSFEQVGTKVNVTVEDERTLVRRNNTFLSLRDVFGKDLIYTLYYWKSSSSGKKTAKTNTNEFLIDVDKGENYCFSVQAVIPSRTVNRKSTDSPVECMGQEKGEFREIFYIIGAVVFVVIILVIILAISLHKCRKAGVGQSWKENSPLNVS
Non-standard residues stand in square brackets, D forms with d. Residues, ends and D or L forms follow the SMILES beside them. *: point of attachment. dPhe(4-guanidino) = N=C(N)Nc1ccc(C[C@@H](N)C(=O)O)cc1; Phe(4-amidino) = N=C(N)c1ccc(C[C@H](N)C(=O)O)cc1; Cha = N[C@@H](CC1CCCCC1)C(=O)O; Alloc = C=CCOC(=O)*

{"columns": ["compound", "target-under-test", "readout-unit", "Ki"],
 "data": [
  ["C=CCOC(=O)N[C@@H](Cc1ccc(C(=N)N)cc1)C(=O)N[C@@H](CCC(=O)O)C(=O)N[C@H](Cc1ccc(NC(=N)N)cc1)C(=O)N[C@@H](CC1CCCCC1)C(N)=O (Alloc-[Phe(4-amidino)]E[dPhe(4-guanidino)][Cha]-NH2)", "human factor VIIa and TF (Homo sapiens, UniProt P08709)", "nM", 11300],
  ["C=CCOC(=O)N[C@@H](Cc1ccc(C(=N)N)cc1)C(=O)N[C@@H](CCC(=O)O)C(=O)N[C@@H](CC(N)=O)C(=O)N[C@@H](CC1CCCCC1)C(N)=O [Alloc--pAph--Glu--Asn--Cha--NH2, Alloc-pAph-Glu-Asn-Cha-NH2] (Alloc-[Phe(4-amidino)]EN[Cha]-NH2)", "human factor VIIa and TF (Homo sapiens, UniProt P08709)", "nM", 21],
  ["C=CCOC(=O)N[C@@H](Cc1ccc(C(=N)N)cc1)C(=O)N[C@@H](CCC(=O)O)C(=O)N[C@@H](CC(N)=O)C(=O)NCc1ccc(Cl)c(Cl)c1", "human factor VIIa and TF (Homo sapiens, UniProt P08709)", "nM", 26],
  ["C=CCOC(=O)N[C@@H](Cc1ccc(C(=N)N)cc1)C(=O)N[C@@H](CCC(=O)O)C(=O)N[C@@H](CC(=N)N)C(=O)N[C@@H](CC1CCCCC1)C(N)=O", "human factor VIIa and TF (Homo sapiens, UniProt P08709)", "nM", 30],
  ["C=CCOC(=O)N[C@@H](Cc1ccc(C(=N)N)cc1)C(=O)N[C@@H](CCC(=O)O)C(=O)N[C@@H](CC(N)=O)C(=O)NCCC(C)C [Alloc--pAph--Glu--Asn-3-methylbutylamide]", "human factor VIIa and TF (Homo sapiens, UniProt P08709)", "nM", 110]
]}

Just for reference, patent US6287794A is where these values come from.
